test: Unbound fraction in human plasma; type: ADME, cell-free
outcome_measure: fraction unbound

INSERT INTO results (mol, outcome_measure, result) VALUES
  ('COc1ccc2ncc(F)c(C[C@H](O)C34CCC(NCc5ccc6c(n5)NC(=O)CO6)(CC3)CO4)c2n1.Cl', 'fraction unbound', '> 0.25'),
  ('COc1ccc2ncc(F)c(CCC34CCC(NCc5ccc6c(n5)NC(=O)CO6)(CC3)CO4)c2n1.Cl', 'fraction unbound', '< 0.02');

Consider the additional compound presented here.
INPUT: # query: fraction unbound of entry COc1ccc2ncc(F)c(C[C@@H](O)C34CCC(NCc5ccc6c(n5)NC(=O)CO6)(CC3)CO4)c2n1.Cl
OUTPUT: > 0.25
